Measurement record for human glycine N-methyltransferase (hGNMT) (Homo sapiens); quantity recorded: IC50.

Molecule	IC50 / nM
Nc1ncnc2c1ncn2[C@@H]1O[C@H](CSc2cc(C(=O)O)ccc2Cl)[C@@H](O)[C@H]1O [10b, 4-Chloro-5-((adenosyl)thio)benzoic acid]	330
COC(=O)c1cccc(CSC[C@H]2O[C@@H](n3cnc4c(N)ncnc43)[C@H](O)[C@@H]2O)c1 [5k]	870
Nc1ncnc2c1ncn2[C@@H]1O[C@H](CSCc2cc(C#CCO)cc(C(=O)O)c2)[C@@H](O)[C@H]1O [5v]	9.8
N#Cc1cccc(CSC[C@H]2O[C@@H](n3cnc4c(N)ncnc43)[C@H](O)[C@@H]2O)c1 [5g, 3-(((Adenosyl)thio)methyl)benzonitrile]	724
CNC(=O)c1cccc(CSC[C@H]2O[C@@H](n3cnc4c(N)ncnc43)[C@H](O)[C@@H]2O)c1 [5l]	2780
CNS(=O)(=O)c1cccc(CSC[C@H]2O[C@@H](n3cnc4c(N)ncnc43)[C@H](O)[C@@H]2O)c1 [5j]	350
Nc1ncnc2c1ncn2[C@@H]1O[C@H](CSCc2ccc(Cl)c(C(=O)O)c2)[C@@H](O)[C@H]1O [5m]	6.6
Nc1ncnc2c1ncn2[C@@H]1O[C@H](CSCc2cccc(-c3nn[nH]n3)c2)[C@@H](O)[C@H]1O [5h]	220
CS(=O)(=O)Nc1cccc(CSC[C@H]2O[C@@H](n3cnc4c(N)ncnc43)[C@H](O)[C@@H]2O)c1 [5c]	250
Nc1ncnc2c1ncn2[C@@H]1O[C@H](CSCc2ccc(-c3ccccc3)c(C(=O)O)c2)[C@@H](O)[C@H]1O [5r]	10
Nc1ncnc2c1ncn2[C@@H]1O[C@H](CSCc2cc(C(=O)O)cc(-c3ccc(O)cc3)c2)[C@@H](O)[C@H]1O [5t]	4.5
Nc1ncnc2c1ncn2[C@@H]1O[C@H](CSc2ccc(-c3ccccc3)c(C(=O)O)c2)[C@@H](O)[C@H]1O [10e]	24
Nc1ncnc2c1ncn2[C@@H]1O[C@H](CSCc2ccc(C(=O)O)cc2)[C@@H](O)[C@H]1O [5a, 4-(((Adenosyl)thio)methyl)benzoic acid]	400
Nc1ncnc2c1ncn2[C@@H]1O[C@H](CSCc2cccc(O)c2)[C@@H](O)[C@H]1O [5e]	600
Nc1ncnc2c1ncn2[C@@H]1O[C@H](CSc2ccc(Cl)c(C(=O)O)c2)[C@@H](O)[C@H]1O [10a, 2-Chloro-5-((adenosyl)thio)benzoic acid]	13
Nc1ncnc2c1ncn2[C@@H]1O[C@H](CSCc2cccc(CC(=O)O)c2)[C@@H](O)[C@H]1O [5d]	400
CS(=O)(=O)c1cccc(CSC[C@H]2O[C@@H](n3cnc4c(N)ncnc43)[C@H](O)[C@@H]2O)c1 [5i]	250
Nc1ncnc2c1ncn2[C@@H]1O[C@H](CSCc2cc(C(=O)O)cc(-c3ccccc3)c2)[C@@H](O)[C@H]1O [5p]	0.97
Nc1ncnc2c1ncn2[C@@H]1O[C@H](CSCc2cccc(CO)c2)[C@@H](O)[C@H]1O [5f]	1200
Nc1ncnc2c1ncn2[C@@H]1O[C@H](CSc2ccc(C(=O)O)c(-c3ccccc3)c2)[C@@H](O)[C@H]1O [10f]	210
Nc1ncnc2c1ncn2[C@@H]1O[C@H](CSc2ccc(Br)c(C(=O)O)c2)[C@@H](O)[C@H]1O [10c, 2-Bromo-5-((adenosyl)thio)benzoic acid]	8.2
COc1ccc(SC[C@H]2O[C@@H](n3cnc4c(N)ncnc43)[C@H](O)[C@@H]2O)cc1C(=O)O [10d, 2-Methoxy-5-((adenosyl)thio)benzoic acid]	13
Nc1ncnc2c1ncn2[C@@H]1O[C@H](CSCc2ccc(F)c(C(=O)O)c2)[C@@H](O)[C@H]1O [5n]	6.1
Nc1ncnc2c1ncn2[C@@H]1O[C@H](CSCc2cc(Cl)cc(C(=O)O)c2)[C@@H](O)[C@H]1O [5o]	15
